# Test System: T1, recombinant human MASP1 active protease (amino acids 297-699, C-terminal His Tag) (human, UniProt P48740 297-699)
# T1 sequence: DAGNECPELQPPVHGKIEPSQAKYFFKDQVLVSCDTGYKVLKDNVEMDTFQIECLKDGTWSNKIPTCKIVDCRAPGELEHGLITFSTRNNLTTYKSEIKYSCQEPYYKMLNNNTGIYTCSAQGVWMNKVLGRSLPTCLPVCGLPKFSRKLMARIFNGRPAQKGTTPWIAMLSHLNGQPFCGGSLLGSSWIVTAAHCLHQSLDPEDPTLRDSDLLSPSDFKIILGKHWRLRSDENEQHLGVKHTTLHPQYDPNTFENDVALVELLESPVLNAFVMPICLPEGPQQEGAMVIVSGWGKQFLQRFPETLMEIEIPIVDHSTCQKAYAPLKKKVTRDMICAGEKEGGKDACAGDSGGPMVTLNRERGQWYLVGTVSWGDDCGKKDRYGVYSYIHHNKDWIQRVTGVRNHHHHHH
# Method Description: cell-based or functional assay
Bridge positions count the residues as written; N and C are the ends. Square brackets hold non-standard residues; d marks the D form. Ends that are not written are not given here. Oic = O=C(O)[C@@H]1C[C@@H]2CCCC[C@@H]2N1; tBuAla = CC(C)(C)C[C@H](N)C(=O)O; Pen = CC(C)(S)[C@H](N)C(=O)O; Abu = CC[C@H](N)C(=O)O
Observable: human MASP1 IC50 (nM)
Give just the number in nM; leave the unit off.

AICSRSLP[Oic]I[Pen]IP-OH (disulfide 3-11; N-terminus assumed; SMILES CC[C@H](C)[C@H](NC(=O)[C@H](C)N)C(=O)N[C@H]1CSSC(C)(C)[C@@H](C(=O)N[C@H](C(=O)N2CCC[C@H]2C(=O)O)[C@@H](C)CC)NC(=O)[C@H]([C@@H](C)CC)NC(=O)[C@@H]2C[C@@H]3CCCC[C@@H]3N2C(=O)[C@@H]2CCCN2C(=O)[C@H](CC(C)C)NC(=O)[C@H](CO)NC(=O)[C@H](CCCNC(=N)N)NC(=O)[C@H](CO)NC1=O) [AIC+SRSLP-(Oic)-I-(Pen)+IP-OH]: 2.9

Task: Consider the binder shown here: [Abu]ICSRS[tBuAla]PPICIPD-NH2 (disulfide 3-11; N-terminus assumed; SMILES CC[C@H](N)C(=O)N[C@H](C(=O)N[C@H]1CSSC[C@@H](C(=O)N[C@H](C(=O)N2CCC[C@H]2C(=O)N[C@@H](CC(=O)O)C(N)=O)[C@@H](C)CC)NC(=O)[C@H]([C@@H](C)CC)NC(=O)[C@@H]2CCCN2C(=O)[C@@H]2CCCN2C(=O)[C@H](CC(C)(C)C)NC(=O)[C@H](CO)NC(=O)[C@H](CCCNC(=N)N)NC(=O)[C@H](CO)NC1=O)[C@@H](C)CC) [(Abu)-IC+SRS-((tBu)A)-PPIC+IPD-NH2] What is its recorded human MASP1 IC50?
Result: 2.2
